Origin of measurements: the OPERA property sets (Mansouri et al. 2018)

# logP per record follows
Give only the figure.

- C=CCC1C(=O)N(CCN(C)C)c2cccc(C(F)(F)F)c2CC1c1ccc(OC)cc1 (stereo unspecified): 6.6

Exam item: Please report the recorded logP for Cc1ccc(Cl)c(Cc2ccc(Cl)cc2Cl)c1 .
Marked response: 6.38

Exam item: Please report the recorded logP for CC(C)CCCNc1ncnc2c1ncn2C1OC(CO)C(O)C1O (stereo unspecified) .
Marked response: 2.07

###

# logP >= 2 gives condition met, anything below gives condition not met

The following compounds have reported results that may help.
• COCc1ccc(CC#N)cc1 = condition not met
• CCCN(C)CC(=O)Nc1c(C)cccc1C = condition met
• CN(C)CCc1ccccc1 = condition met
• OCC1OC(n2cnc3c(Nc4ccccc4)ncnc32)C(O)C1O (stereo not drawn) = condition not met
• CC(C)CC(N)C(=O)N1CCCC1C(=O)NC(CC(C)C)C(=O)O (stereo not drawn) = condition not met
• S=c1[nH]nc(Cn2ccc3ccccc32)n1-c1ccccc1 = condition met

Exam item: Threshold query (logP >= 2) on c1nc2nc[nH]c(N3CCC3)c-2n1
Marked response: condition not met

Exam item: Threshold query (logP >= 2) on COC(=O)c1cccc(C)c1S(=O)(=O)NC(=O)Nc1nc(OCC(F)(F)F)nc(N(C)C)n1
Marked response: condition met
